# system.tested: C5a receptor (Homo sapiens, UniProt P21730)
# Sequence (P21730 1-350): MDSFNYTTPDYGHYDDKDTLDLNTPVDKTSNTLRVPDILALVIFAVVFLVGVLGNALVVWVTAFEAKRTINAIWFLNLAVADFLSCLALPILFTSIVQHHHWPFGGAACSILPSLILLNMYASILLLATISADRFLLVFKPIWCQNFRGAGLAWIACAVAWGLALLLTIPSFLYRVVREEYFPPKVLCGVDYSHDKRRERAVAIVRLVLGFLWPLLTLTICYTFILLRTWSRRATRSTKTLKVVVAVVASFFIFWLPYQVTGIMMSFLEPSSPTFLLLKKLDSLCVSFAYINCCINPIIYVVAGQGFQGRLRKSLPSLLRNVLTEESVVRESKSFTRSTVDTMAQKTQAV
# method.notes: Anaphylatoxin (C5a) receptor binding Ki determination, 125I-C5a on PMNL membrane fragments
# recorded.conditions: read-out: Ki (In vitro C5a Receptor Binding Potency)
*1 amine or outer side, *2 acyl side, *3 side chain or, on linkers, in order; H or OH if unused. Where a SMILES comes first, the peptide text is derived from it. [ ]: non-standard residue; d: D form. The star is where a group is joined. X13 = O=C([C@H](CC1CCCCC1)N(CCc1ccccc1)[*:1])[*:2]; d(hhPhe) = N[C@H](CCCc1ccccc1)C(=O)O; Cha = N[C@@H](CC1CCCCC1)C(=O)O; Bn = c1ccc(C*)cc1
measurement.label: Ki (nM)
Provide only the numeric value, understood in nM.

- compound: "CC(C)C[C@H](NC(=O)[C@H](C)NC(=O)[C@H](CC1CCCCC1)NC(=O)[C@@H]1CCCN1C(=O)[C@H](CCCCN)NC(=O)CN)C(=O)N[C@H](CSCc1ccccc1)C(=O)N[C@@H](CCCNC(=N)N)C(=O)O [Example 31] (H-GKP[Cha]AL[dC](Bn)R-OH)"
  unit.abbreviation: "nM"
  meas.value: 1100
- compound: "CC(C)C[C@H](NC(=O)[C@H](C)NC(=O)[C@H](CC1CCCCC1)NC(=O)CCCCCN)C(=O)NC(CCCc1ccccc1)C(=O)N[C@@H](CCCNC(=N)N)C(=O)O (single isomer, unassigned) [Example 121]"
  unit.abbreviation: "nM"
  meas.value: 7150
- compound: "CC(C)C[C@H](NC(=O)CNC(=O)[C@H](CC1CCCCC1)NC(=O)CCCCN)C(=O)NC(CCCc1ccccc1)C(=O)N[C@@H](CCCNC(=N)N)C(=O)O (single isomer, unassigned) [Example 139]"
  unit.abbreviation: "nM"
  meas.value: 1100

Quote Ki reported for CC(C)C[C@H](NC(=O)CCCc1c[nH]c2ccccc12)C(=O)NC(CCCc1ccccc1)C(=O)N[C@@H](CCCNC(=N)N)C(=O)O (mixture of isomers) please.
7100

Identify Ki associated with the compound CC(C)C[C@H](NC(=O)[C@H](C)NC(=O)[C@H](CC1CCCCC1)NC(=O)[C@@H]1CCCN1C(=O)[C@H](CCCCN)NC(=O)CN)C(=O)NC(CCCc1ccccc1)C(=O)N[C@@H](CCCNC(=N)N)C(=O)O (single isomer, unassigned) [Example 53]
100

Quote Ki reported for CC(C)C[C@@H](C(=O)NC(CCCc1ccccc1)C(=O)N[C@@H](CCCNC(=N)N)C(=O)O)N(C)C(=O)CNC(=O)[C@H](CC1CCCCC1)NC(=O)CCCCCCN (mixture of isomers) please.
450

For the compound CC(C)C[C@H](NC(=O)[C@@H](C)NC(=O)[C@H](CC1CCCCC1)NC(=O)CCCCCN)C(=O)NC(CCCc1ccccc1)C(=O)N[C@@H](CCCNC(=N)N)C(=O)O (single isomer, unassigned) [Example 126] , give its measured Ki value.
13400

Give a short answer stating reported Ki for CC(C)C[C@H](NC(=O)CNC(=O)[C@@H](N)Cc1c[nH]c2ccccc12)C(=O)N[C@H](CCCc1ccccc1)C(=O)N[C@@H](CCCNC(=N)N)C(=O)O [Example 130] (H-WGL[d(hhPhe)]R-OH) .
140

Please give the documented Ki of CC(C)C[C@H](NC(=O)CNC(=O)[C@H](CC1CCCCC1)NCCc1ccccc1)C(=O)N[C@H](CCCc1ccccc1)C(=O)N[C@@H](CCCNC(=N)N)C(=O)O [Example 78] (H-[X13]GL[d(hhPhe)]R-OH)
70
